# Test system: serum cholesterol and serum triglyceride
# experiment: Hypolipidemic activity of 2,3-dihydrophthalazine-1,4-diones in normal male mice (Example 11, Table II)
# Format: in vivo, CF1 male mice
# condition-info: Mus musculus, ip, 384 h; CF1 male mice, 20 mg/kg/day intraperitoneally, Day 16; read-out: Serum Triglyceride Day 16, percent control ± standard deviation
property-label: response vs control in vivo at 20 mg/kg/day

## Task // Input: O=c1c2ccccc2c(O)nn1-c1cccc(Cl)c1 [Compound 23] . Output its response vs control in vivo at 20 mg/kg/day only.
## Result 69%

## Task // Input: COc1nn(C)c(=O)c2ccccc12 [Compound 3, 2-Methyl-4-Methoxyphthalazine-1(2H)-One] . Output its response vs control in vivo at 20 mg/kg/day only.
## Result 64%

## Task // Input: O=c1c2ccccc2c(O)nn1-c1ccccc1Cl [Compound 22] . Output its response vs control in vivo at 20 mg/kg/day only.
## Result 68%

## Task // Input: O=c1[nH]n(-c2ccc(Cl)cc2)c(=O)c2ccccc12 [Compound 24] . Output its response vs control in vivo at 20 mg/kg/day only.
## Result 59%

## Task // Input: CCCCn1[nH]c(=O)c2ccccc2c1=O [Compound 8] . Output its response vs control in vivo at 20 mg/kg/day only.
## Result 73%

###

Assignment: determine reported response vs control in vivo at 20 mg/kg/day for the given molecules.
# Tested on: serum cholesterol and serum triglyceride
# experiment: Hypolipidemic activity of 2,3-dihydrophthalazine-1,4-diones in normal male mice (Example 11, Table II)
# Assay type: in vivo, CF1 male mice
# condition-info: Mus musculus, ip, 384 h; CF1 male mice, 20 mg/kg/day intraperitoneally, Day 16; read-out: Serum Triglyceride Day 16, percent control ± standard deviation
I only need the number, in %, no unit after it.

## Task Return reported response vs control in vivo at 20 mg/kg/day for target or system serum cholesterol and serum triglyceride, item CCOc1nn(CC)c(=O)c2ccccc12 [Compound 5] .
## Result 57

## Task Return reported response vs control in vivo at 20 mg/kg/day for target or system serum cholesterol and serum triglyceride, item Cc1ccc(-n2nc(O)c3ccccc3c2=O)cc1 [Compound 27] .
## Result 57

## Task Return reported response vs control in vivo at 20 mg/kg/day for target or system serum cholesterol and serum triglyceride, item O=c1[nH][nH]c(=O)c2ccccc12 [Compound 1, 2,3-Dihydrophthalazine-1,4-Dione] .
## Result 57

## Task Return reported response vs control in vivo at 20 mg/kg/day for target or system serum cholesterol and serum triglyceride, item O=c1[nH]nc(O)c2cc(Cl)ccc12 [Compound 13] .
## Result 65

## Task Return reported response vs control in vivo at 20 mg/kg/day for target or system serum cholesterol and serum triglyceride, item Cn1nc(O)c2ccccc2c1=O [Compound 2] .
## Result 66

## Task Return reported response vs control in vivo at 20 mg/kg/day for target or system serum cholesterol and serum triglyceride, item Cc1cccc2c(=O)[nH]nc(O)c12 [Compound 14] .
## Result 73

## Task Return reported response vs control in vivo at 20 mg/kg/day for target or system serum cholesterol and serum triglyceride, item O=c1[nH][nH]c(=O)c2c(Cl)cccc12 [Compound 12] .
## Result 86

## Task Return reported response vs control in vivo at 20 mg/kg/day for target or system serum cholesterol and serum triglyceride, item CCCCCn1nc(O)c2ccccc2c1=O [Compound 10] .
## Result 55

## Task Return reported response vs control in vivo at 20 mg/kg/day for target or system serum cholesterol and serum triglyceride, item CCCOc1nn(CCC)c(=O)c2ccccc12 [Compound 7] .
## Result 69
